Entry source: ChEMBL document CHEMBL1155371

Target: UniProt O14786
Test: Displacement of [125I]VEGF-A from human NRP1 expressed in pig aortic endothelial cells
Format: cell-based, Endothelial cell
Where a SMILES comes first, the peptide text is derived from it.
outcome measure: pIC50
Numbers only, as −log10 of the molar value.

molecule=Cc1nc(S(=O)(=O)Nc2ccsc2C(=O)N[C@@H](CCCNC(=N)N)C(=O)O)cn1C value_observed=4.92
molecule=N=C(N)NCCC[C@H](NC(=O)c1sccc1NS(=O)(=O)c1cccc(N)c1)C(=O)O value_observed=4.85
molecule=CC(=O)Nc1ccc(S(=O)(=O)Nc2ccsc2C(=O)N[C@@H](CCCNC(=N)N)C(=O)O)cc1 value_observed=4.74
molecule=C[C@H](NC(=O)[C@@H]1CCCN1C(=O)[C@@H](N)CCCCN)C(=O)N[C@@H](CCCNC(=N)N)C(=O)O value_observed=4.52
molecule=N=C(N)NCCC[C@H](NC(=O)c1sccc1NS(=O)(=O)c1ccc(F)cc1F)C(=O)O value_observed=4.48

For every listed record, write down its pIC50.
1. N=C(N)NCCC[C@H](NC(=O)c1sccc1NS(=O)(=O)c1cccc2nonc12)C(=O)O
2. N=C(N)NCCC[C@H](NC(=O)c1sccc1NS(=O)(=O)c1ccccc1[N+](=O)[O-])C(=O)O
3. N=C(N)NCCC[C@H](NC(=O)[C@@H]1CCCN1C(=O)[C@@H]1CCCN1C(=O)[C@@H](N)CCCCN)C(=O)O (H-KPPR-OH)
4. N=C(N)NCCC[C@H](NC(=O)c1sccc1NS(=O)(=O)c1cccc2nsnc12)C(=O)O
5. Cc1nn(C)c(Cl)c1CNc1cccc(S(=O)(=O)Nc2ccsc2C(=O)N[C@@H](CCCNC(=N)N)C(=O)O)c1
6. N=C(N)NCCC[C@H](NC(=O)c1sccc1NS(=O)(=O)c1ccccc1N)C(=O)O

Result:
4.77
5.05
4.85
5.10
5.22
4.77

List the reported pIC50 of each molecule below.
1. N=C(N)NCCC[C@H](NC(=O)c1sccc1NS(=O)(=O)c1ccc(N)cc1)C(=O)O
2. N=C(N)NCCC[C@H](NC(=O)c1sccc1NS(=O)(=O)c1ccc([N+](=O)[O-])cc1)C(=O)O (stereo in doubt; 38)

Result:
1: 4.89; 2: 4.28

---

Target: Neuropilin-1 (Homo sapiens, UniProt O14786)
Sequence (O14786 whole entry): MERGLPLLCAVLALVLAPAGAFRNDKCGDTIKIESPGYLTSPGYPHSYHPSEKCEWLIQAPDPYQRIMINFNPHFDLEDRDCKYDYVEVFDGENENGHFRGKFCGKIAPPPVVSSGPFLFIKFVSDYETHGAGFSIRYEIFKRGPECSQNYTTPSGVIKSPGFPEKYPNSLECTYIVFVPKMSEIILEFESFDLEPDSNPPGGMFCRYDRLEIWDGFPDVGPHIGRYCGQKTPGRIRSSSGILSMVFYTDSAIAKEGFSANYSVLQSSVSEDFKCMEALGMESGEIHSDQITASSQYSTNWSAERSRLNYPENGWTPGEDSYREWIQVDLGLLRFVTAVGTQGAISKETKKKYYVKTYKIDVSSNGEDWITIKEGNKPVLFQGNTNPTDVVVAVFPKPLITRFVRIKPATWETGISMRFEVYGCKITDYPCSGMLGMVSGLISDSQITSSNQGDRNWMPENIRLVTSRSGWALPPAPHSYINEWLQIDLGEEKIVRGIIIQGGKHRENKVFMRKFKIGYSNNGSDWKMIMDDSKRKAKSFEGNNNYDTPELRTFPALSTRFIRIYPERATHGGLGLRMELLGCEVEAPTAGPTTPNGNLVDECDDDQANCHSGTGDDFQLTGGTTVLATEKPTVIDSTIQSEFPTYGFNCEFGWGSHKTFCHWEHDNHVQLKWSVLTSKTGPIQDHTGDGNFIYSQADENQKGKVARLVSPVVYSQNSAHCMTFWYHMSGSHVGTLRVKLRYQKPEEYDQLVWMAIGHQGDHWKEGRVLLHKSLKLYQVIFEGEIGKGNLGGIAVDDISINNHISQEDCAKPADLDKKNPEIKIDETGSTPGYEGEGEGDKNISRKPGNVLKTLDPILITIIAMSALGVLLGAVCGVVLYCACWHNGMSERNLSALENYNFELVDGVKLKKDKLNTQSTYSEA
Test: Displacement of […] from human NRP1 expressed in human DU145 cells
Type: cell-based, DU-145
outcome measure: IC50 (µM)
Give bare numbers, in µM.

Query: Specify IC50 for `N=C(N)NCCC[C@H](NC(=O)c1sccc1NS(=O)(=O)c1cccc2nsnc12)C(=O)O` and stop.
Result: 3

---

Target: Neuropilin-1 (Homo sapiens, UniProt O14786)
Assay: Displacement of [125I]VEGF-A from human NRP1 expressed in pig aortic endothelial cells at 100 uM
Assay type: cell-based
Conditions: Endothelial cell
Label scheme for Activity: lower than 40% is f, 40% and above is t.

Use the examples below as a reference point.
compound=N=C(N)NCCC[C@H](NC(=O)C1CCN(Cc2cccc(NC(=O)CCCCCN)c2)CC1)C(=O)O class_label=f
compound=C[C@@H](NC(=O)[C@@H]1CCCN1C(=O)[C@@H](N)CCCCN)C(=O)N[C@@H](CCCNC(=N)N)C(=O)O class_label=f
compound=Cc1oc(-c2ccc(NC(=O)CCCCN)cc2)cc1C(=O)N[C@@H](CCCNC(=N)N)C(=O)O class_label=f
compound=N=C(N)NCCC[C@H](NC(=O)c1sccc1NS(=O)(=O)c1ccc2nsnc2c1)C(=O)NO class_label=t
compound="N=C(N)NCCC[C@H](NC(=O)c1cccc(-c2cccc(NC(=O)C3CCC(CN)CC3)c2)c1)C(=O)O (stereo partly drawn)" class_label=t

Query: Decide: Activity of `N=C(N)NCCCC[C@H](NC(=O)c1sccc1NS(=O)(=O)c1ccc(N)cc1)C(=O)O` >= 40%?
Result: f

Query: Item `N=C(N)NCCC[C@H](NC(=O)c1sccc1NS(=O)(=O)c1ccc(F)cc1F)C(=O)O` with Activity of 40% or above?
Result: t

---

Target: Neuropilin-1 (Homo sapiens)
Experiment: Displacement of [125I]VEGF-A from human NRP1 expressed in pig aortic endothelial cells
Type: cell-based, Endothelial cell
Conditions: endothelial cell
outcome measure: pIC50
Answers are plain numbers, as −log10 of the molar value.

Query: Tell me pIC50 reported for N=C(N)NCCC[C@H](NC(=O)c1sccc1NS(=O)(=O)c1ccc([N+](=O)[O-])cc1)C(=O)O (stereo in doubt; 46)
Result: 4.28

---

Kindly supply the reported Activity values for the records listed here.
Target: Neuropilin-1 (Homo sapiens)
Test: Displacement of [125I]VEGF-A from human NRP1 expressed in pig aortic endothelial cells at 100 uM
Assay type: cell-based
Details: Endothelial cell
Where a SMILES comes first, the peptide text is derived from it.
Respond with the figure and its unit, in that order.

Recorded results for 5 compounds are shown here.
compound=N=C(N)NCCC[C@H](NC(=O)c1sccc1NS(=O)(=O)c1ccc(N)cc1)C(=O)O value_observed=78%
compound=N=C(N)Nc1ccc(C[C@H](NC(=O)c2sccc2NS(=O)(=O)c2ccc(N)cc2)C(=O)O)cc1 value_observed=13%
compound=N=C(N)NC(=O)CC[C@H](NC(=O)c1sccc1NS(=O)(=O)c1ccc([N+](=O)[O-])cc1)C(=O)O value_observed=58%
compound=C[C@H](NC(=O)[C@@H]1CCCN1C(=O)[C@@H](N)CCCCN)C(=O)N[C@@H](CCCNC(=N)N)C(=O)O value_observed=83%
compound=N=C(N)NCCC[C@H](NC(=O)c1sccc1NS(=O)(=O)c1cccc2nsnc12)C(=O)O value_observed=99%

Batch lookup, Activity per entry.
1. N=C(N)NCCC[C@H](NC(=O)c1sccc1NS(=O)(=O)c1ccccc1N)C(=O)O
2. C/N=C(/NC)NCCC[C@H](NC(=O)c1sccc1NS(=O)(=O)c1ccc([N+](=O)[O-])cc1)C(=O)O
3. C[C@H](NC(=O)[C@@H]1CCCN1C(=O)[C@@H](N)CCCCN)C(=O)N[C@@H](CCCCN)C(=O)O (H-KPAK-OH)

Result:
["95%", "12%", "22%"]

---

Target: Neuropilin-1 (Homo sapiens, UniProt O14786)
Test: Displacement of [125I]VEGF-A from human NRP1 expressed in pig aortic endothelial cells at 100 uM
Assay type: cell-based
Conditions: Endothelial cell
Where a SMILES comes first, the peptide text is derived from it.
Can you tell me Activity for the items I'm about to list?
One number for each entry, in %.

Worked cases, answers included:
compound=N=C(N)NCCC[C@H](NC(=O)c1ccccc1S(=O)(=O)C1CCNCC1)C(=O)O outcome_measure=Activity value_observed=10
compound=N=C(N)NCCC[C@H](NC(=O)c1sccc1S(=O)(=O)Nc1ccc(N)cc1)C(=O)O outcome_measure=Activity value_observed=0
compound=N=C(N)NCCC[C@@H](CO)NC(=O)c1sccc1NS(=O)(=O)c1ccc2nsnc2c1 outcome_measure=Activity value_observed=21
compound=CC(=O)Nc1ccc(S(=O)(=O)Nc2ccsc2C(=O)N[C@@H](CCCNC(=N)N)C(=O)O)cc1 outcome_measure=Activity value_observed=84
compound=N=C(N)NCCC[C@H](NC(=O)c1sccc1NS(=O)(=O)c1ccccc1[N+](=O)[O-])C(=O)O outcome_measure=Activity value_observed=100
compound="C[C@H](NC(=O)[C@@H]1CCCN1C(=O)[C@@H](N)CCCCN)C(=O)N[C@@H](CCC(N)=O)C(=O)O (H-KPAQ-OH)" outcome_measure=Activity value_observed=19

Okay, here is my list. What is Activity for each of these?
1. N=C(N)NCCC[C@H](NC(=O)c1sccc1NS(=O)(=O)c1cccc2nonc12)C(=O)O
2. N=C(N)NCCC[C@H](NC(=O)c1sccc1NS(=O)(=O)c1ccc([N+](=O)[O-])cc1)C(=O)O (stereo in doubt; 46)

Result:
1. 87
2. 75

---

Molecular target: Neuropilin-1 (Homo sapiens, UniProt O14786)
Assay: Displacement of biotinylated-[…] from human NRP1 expressed in HUVEC
Assay type: cell-based
outcome measure: IC50 (µM)
Numbers only, in µM.

Query: Give IC50 for the following compound: `N=C(N)NCCC[C@H](NC(=O)c1sccc1NS(=O)(=O)c1cccc2nsnc12)C(=O)O`
Result: 23

---

Target: Neuropilin-1 (Homo sapiens, UniProt O14786)
Test: Displacement of [125I]VEGF-A from human NRP1 expressed in pig aortic endothelial cells at 100 uM
Format: cell-based
Details: Endothelial cell
outcome measure: Activity
Write the quantity with the unit trailing the number.

Batch of 4 compounds: report Activity for each.
1. CN(c1ccsc1C(=O)N[C@@H](CCCNC(=N)N)C(=O)O)S(=O)(=O)c1ccc([N+](=O)[O-])cc1
2. C[C@H](NC(=O)[C@@H]1CCCN1C(=O)[C@H](N)CCCCN)C(=O)N[C@@H](CCCNC(=N)N)C(=O)O
3. C[C@H](NC(=O)[C@@H]1CCCN1C(=O)[C@@H](N)CCCCN)C(=O)N[C@H](CCCNC(=N)N)C(=O)O
4. N=C(N)NCCC[C@H](NC(=O)c1ccccc1NS(=O)(=O)c1ccc(N)cc1)C(=O)O

Result:
["42%", "51%", "22%", "70%"]
